Items are presented alongside their recorded normalized SPR signal.
Target: T1, Activin A (Homo sapiens (Human), UniProt P08476 311-426)
T1 sequence: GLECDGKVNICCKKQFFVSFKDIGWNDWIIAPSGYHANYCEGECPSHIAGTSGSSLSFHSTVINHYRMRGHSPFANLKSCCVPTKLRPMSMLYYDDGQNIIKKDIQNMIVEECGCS
Assay: Biacore SPR grade, COS transient conditioned media, 20 nM activin A

Solved entries:
- binder: "ActRIIB-IgG1 Fc E28W, linker GGGGS (Fc fusion, Tested from conditioned media) SGRGEAETRWCIYYNANWELERTNQSGLERCEGEQDKRLHCYASWRNSSGTIELVKKGCWLDDFNCYDRQECVATEENPQVYFCCCEGNFCNERFTHLPEAGGPEVTYEPPPTAPTGGGGSAPELLGGPSVFLFPPKPKDILMISRTPEVTCVVVDVSHEDPEVKFNWYVGGVEVHNAKTKPREEQYNSTYRVVSVLTVLHQDWLNGKEYKCKVSNKALPAPIEKTISKAKGQPREPQVYTLPPSRDELTKNQVSLTCLVKGFYPSDIAVEWESNGQPENNYKTTPPVLDSDGSFFLYSKLTVDKSRWQQGNVFSCSVMHEALHNHYTQKSLSLSPGK"
  experimental.result: "> 60 ru"
- binder: "ActRIIB-IgG1 Fc R40M, linker GGGGS (Fc fusion, Tested from conditioned media) SGRGEAETRECIYYNANWELEMTNQSGLERCEGEQDKRLHCYASWRNSSGTIELVKKGCWLDDFNCYDRQECVATEENPQVYFCCCEGNFCNERFTHLPEAGGPEVTYEPPPTAPTGGGGSAPELLGGPSVFLFPPKPKDILMISRTPEVTCVVVDVSHEDPEVKFNWYVGGVEVHNAKTKPREEQYNSTYRVVSVLTVLHQDWLNGKEYKCKVSNKALPAPIEKTISKAKGQPREPQVYTLPPSRDELTKNQVSLTCLVKGFYPSDIAVEWESNGQPENNYKTTPPVLDSDGSFFLYSKLTVDKSRWQQGNVFSCSVMHEALHNHYTQKSLSLSPGK"
  experimental.result: "5 to 10 ru"
- binder: "ActRIIB-IgG1 Fc E28Y, linker GGGGS (Fc fusion, Tested from conditioned media) SGRGEAETRYCIYYNANWELERTNQSGLERCEGEQDKRLHCYASWRNSSGTIELVKKGCWLDDFNCYDRQECVATEENPQVYFCCCEGNFCNERFTHLPEAGGPEVTYEPPPTAPTGGGGSAPELLGGPSVFLFPPKPKDILMISRTPEVTCVVVDVSHEDPEVKFNWYVGGVEVHNAKTKPREEQYNSTYRVVSVLTVLHQDWLNGKEYKCKVSNKALPAPIEKTISKAKGQPREPQVYTLPPSRDELTKNQVSLTCLVKGFYPSDIAVEWESNGQPENNYKTTPPVLDSDGSFFLYSKLTVDKSRWQQGNVFSCSVMHEALHNHYTQKSLSLSPGK"
  experimental.result: "> 60 ru"
- binder: "ActRIIB-IgG1 Fc E28H, linker GGGGS (Fc fusion, Tested from conditioned media) SGRGEAETRHCIYYNANWELERTNQSGLERCEGEQDKRLHCYASWRNSSGTIELVKKGCWLDDFNCYDRQECVATEENPQVYFCCCEGNFCNERFTHLPEAGGPEVTYEPPPTAPTGGGGSAPELLGGPSVFLFPPKPKDILMISRTPEVTCVVVDVSHEDPEVKFNWYVGGVEVHNAKTKPREEQYNSTYRVVSVLTVLHQDWLNGKEYKCKVSNKALPAPIEKTISKAKGQPREPQVYTLPPSRDELTKNQVSLTCLVKGFYPSDIAVEWESNGQPENNYKTTPPVLDSDGSFFLYSKLTVDKSRWQQGNVFSCSVMHEALHNHYTQKSLSLSPGK"
  experimental.result: "5 to 10 ru"
- binder: "ActRIIB-IgG1 Fc E28F, linker GGGGS (Fc fusion, Tested from conditioned media) SGRGEAETRFCIYYNANWELERTNQSGLERCEGEQDKRLHCYASWRNSSGTIELVKKGCWLDDFNCYDRQECVATEENPQVYFCCCEGNFCNERFTHLPEAGGPEVTYEPPPTAPTGGGGSAPELLGGPSVFLFPPKPKDILMISRTPEVTCVVVDVSHEDPEVKFNWYVGGVEVHNAKTKPREEQYNSTYRVVSVLTVLHQDWLNGKEYKCKVSNKALPAPIEKTISKAKGQPREPQVYTLPPSRDELTKNQVSLTCLVKGFYPSDIAVEWESNGQPENNYKTTPPVLDSDGSFFLYSKLTVDKSRWQQGNVFSCSVMHEALHNHYTQKSLSLSPGK"
  experimental.result: "20 to 40 ru"

Proceed to the following item.
Short answer for ActRIIB-IgG1 Fc R40Q, linker GGGGS (Fc fusion, Tested from conditioned media) SGRGEAETRECIYYNANWELEQTNQSGLERCEGEQDKRLHCYASWRNSSGTIELVKKGCWLDDFNCYDRQECVATEENPQVYFCCCEGNFCNERFTHLPEAGGPEVTYEPPPTAPTGGGGSAPELLGGPSVFLFPPKPKDILMISRTPEVTCVVVDVSHEDPEVKFNWYVGGVEVHNAKTKPREEQYNSTYRVVSVLTVLHQDWLNGKEYKCKVSNKALPAPIEKTISKAKGQPREPQVYTLPPSRDELTKNQVSLTCLVKGFYPSDIAVEWESNGQPENNYKTTPPVLDSDGSFFLYSKLTVDKSRWQQGNVFSCSVMHEALHNHYTQKSLSLSPGK : normalized SPR signal was 5 to 10 ru

These data points were gathered from patent US20130288983A1.
